Source: PubChem BioAssay (NCI)

- Tested on: MDA-N
- experimentDescription: NCI tumour cell line growth inhibition, 48 h
readout: TGI

TGI recorded for this compound, `Cc1cc(C2(c3cc(C)c(O)c4ncccc34)OC(=O)c3ccccc32)c2cccnc2c1O` , is > 100 µM

TGI recorded for this compound, `CN1Cc2c(ccc3c2OCO3)[C@@H]2[C@H](O)Cc3cc4c(cc3[C@@H]21)OCO4` , is 1.46 µM

TGI recorded for this compound, `O=NNc1nc(-c2ccccn2)nc2ccccc12` , is > 100 µM

TGI recorded for this compound, `O=C(c1ccccc1)n1c2ccc(Br)cc2c2nc3ccccc3nc21` , is > 100 µM

TGI recorded for this compound, `COc1ccc(-c2cc(=O)c3cc(OC)c(OC)cc3[nH]2)cc1OC` , is > 100 µM

TGI recorded for this compound, `O=C(Nc1nc2ccc([N+](=O)[O-])cc2s1)c1cc([N+](=O)[O-])ccc1Cl` , is 5.04 µM

TGI recorded for this compound, `CCc1nc2cc(F)ccc2[nH]c1=O` , is > 100 µM

TGI recorded for this compound, `COc1cc([C@H]2c3cc(O)c(OC)cc3C[C@]3(O)[C@@H]2CO[C@@H]3O)ccc1O` , is > 100 µM

TGI recorded for this compound, COc1cc(CC2C(=O)OCC2Cc2ccc(OC)c(OC)c2)ccc1O (stereo not given) , is > 100 µM

TGI recorded for this compound, CC(=O)Nc1ccc(C(=O)NN2C(=O)CSC2c2ccccc2)cc1 (stereo not given) , is > 100 µM
